In this section, each of the compounds is paired with its reported inhibition.
TGT: 17-beta-hydroxysteroid dehydrogenase type 2 (Homo sapiens) (UniProt P37059)
Sequence (P37059 whole entry): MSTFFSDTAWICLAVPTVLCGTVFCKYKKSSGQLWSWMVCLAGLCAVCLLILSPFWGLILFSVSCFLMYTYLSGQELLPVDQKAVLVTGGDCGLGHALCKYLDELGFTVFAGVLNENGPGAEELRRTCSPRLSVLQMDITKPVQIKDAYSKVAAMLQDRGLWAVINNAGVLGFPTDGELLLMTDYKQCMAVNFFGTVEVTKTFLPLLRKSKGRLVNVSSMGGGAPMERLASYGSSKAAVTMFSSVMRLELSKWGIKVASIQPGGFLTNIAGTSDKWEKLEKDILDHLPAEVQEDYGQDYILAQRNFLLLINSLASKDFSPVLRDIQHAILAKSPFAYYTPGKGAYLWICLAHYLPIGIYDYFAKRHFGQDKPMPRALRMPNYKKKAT
PROTOCOL TEXT: Displacement of [3H]estradiol from human placental 17beta-HSD2 at 1 uM
READOUT NAME: inhibition

SMILES STR | READOUT NAME | ENDPOINT VALUE
Oc1cccc(-c2ccc(-c3cccs3)cc2)c1 | inhibition | 22%
O=c1ccc(-c2ccc(-c3cccc(O)c3)cc2)c[nH]1 | inhibition | < 10%
Oc1cccc(-c2cncc(-c3ccc(Cl)s3)c2)c1 | inhibition | 46%
Oc1cccc(-c2ccc(-c3ccsc3)cc2)c1 | inhibition | 36%
Oc1cccc(-c2ccccc2)c1 | inhibition | < 10%
CC(=O)c1ccc(-c2ccc(-c3cccc(O)c3)cc2)s1 | inhibition | 10%
Oc1cccc(-c2ccc(OCCN3CCOCC3)cc2)c1 | inhibition | < 10%

---

TGT: Estrogen receptor (Homo sapiens)
PROTOCOL TEXT: Displacement of [3H]estradiol from human recombinant ERalpha assessed as relative binding affinity by liquid scintillation counting relative to estradiol
In this section, each of the compounds is paired with its reported RBA.
READOUT NAME: RBA (%)

SMILES STR | READOUT NAME | VALUE UNITS | QUALIFYING SIGN | ENDPOINT VALUE
Oc1cccc(-c2cccc(-c3ccc(Cl)s3)n2)c1 | RBA | % | = | 0.001
Oc1cccc(-c2ccnc(-c3ccc(Cl)s3)c2)c1 | RBA | % | = | 0.001
Oc1cccc(-c2cc(-c3ccc(Cl)s3)ccn2)c1 | RBA | % | < | 0.001
Oc1cccc(-c2ccc(-c3ccc(Cl)s3)cc2)c1 | RBA | % | = | 0.01
Oc1cccc(-c2cccc(-c3cc4ccccc4s3)c2)c1 | RBA | % | < | 0.01
Oc1cccc(-c2cccc(-c3ccc(Cl)s3)c2)c1 | RBA | % | < | 0.01
COc1ccc(-c2ccc(-c3cccc(O)c3)cc2)cn1 | RBA | % | = | 0.001

---

TGT: UniProt P14061
PROTOCOL TEXT: Displacement of [3H]estrone from human placental 17beta-HSD1 at 1 uM
In this section, each of the compounds is paired with its reported inhibition.

SMILES STR | TGT | QUALIFYING SIGN | inhibition [%]
COc1ccc(-c2ccc(-c3cccc(O)c3)cc2)cn1 | UniProt P14061 | = | 58
O=c1ccc(-c2ccc(-c3cccc(O)c3)cc2)c[nH]1 | UniProt P14061 | < | 10
Oc1cccc(-c2ccc(-c3ccc(Cl)s3)cc2)c1 | UniProt P14061 | = | 48
Oc1cccc(-c2cccc(-c3cc4ccccc4s3)c2)c1 | UniProt P14061 | = | 49
Oc1cccc(-c2ccc(OCCN3CCOCC3)cc2)c1 | UniProt P14061 | < | 10
Cc1ccc(-c2cccc(-c3cccc(O)c3)c2)s1 | UniProt P14061 | = | 32

---

In this section, each of the compounds is paired with its reported inhibition.
TGT: 17-beta-hydroxysteroid dehydrogenase type 2 (Homo sapiens)
PROTOCOL TEXT: Displacement of [3H]estradiol from human placental 17beta-HSD2 at 1 uM
READOUT NAME: inhibition (%)

SMILES STR | VALUE UNITS | QUALIFYING SIGN | ENDPOINT VALUE
Cc1ccc(-c2cccc(-c3cccc(O)c3)c2)s1 | % | = | 36
Oc1cccc(-c2cc(-c3ccc(Cl)s3)ccn2)c1 | % | = | 25
Oc1cccc(-c2cccc(-c3ccc(Cl)s3)c2)c1 | % | = | 31
Oc1cccc(-c2ccnc(-c3ccc(Cl)s3)c2)c1 | % | = | 63
Oc1cccc(-c2cccc(-c3ccc(Cl)s3)n2)c1 | % | = | 21
Oc1cccc(-c2ccc(N3CCOCC3)cc2)c1 | % | < | 10
Oc1cccc(-c2ccnc(-c3cccs3)c2)c1 | % | = | 62
CC(=O)c1ccc(-c2cccc(-c3cccc(O)c3)c2)s1 | % | = | 23
Oc1cccc(-c2ccc(-c3ccc(Cl)s3)cc2)c1 | % | < | 10
Oc1cccc(-c2cccc(-c3cc4ccccc4s3)c2)c1 | % | = | 39
COc1ccc(-c2ccc(-c3cccc(O)c3)cc2)cn1 | % | = | 35
Oc1cccc(-c2ccc(-c3ccoc3)cc2)c1 | % | < | 10
Oc1cccc(-c2cccc(-c3cccs3)c2)c1 | % | = | 40

---

TGT: 17-beta-hydroxysteroid dehydrogenase type 1 (Homo sapiens) (UniProt P14061)
Sequence (whole entry): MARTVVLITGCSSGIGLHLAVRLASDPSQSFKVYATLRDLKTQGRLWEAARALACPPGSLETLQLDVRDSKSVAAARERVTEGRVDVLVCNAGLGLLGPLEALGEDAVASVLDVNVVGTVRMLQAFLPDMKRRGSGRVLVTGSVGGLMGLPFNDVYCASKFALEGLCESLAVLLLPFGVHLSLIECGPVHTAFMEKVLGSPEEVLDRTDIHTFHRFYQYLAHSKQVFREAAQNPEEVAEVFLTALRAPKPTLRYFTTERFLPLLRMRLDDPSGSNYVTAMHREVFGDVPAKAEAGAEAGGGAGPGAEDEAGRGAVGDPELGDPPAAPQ
PROTOCOL TEXT: Displacement of [3H]estrone from human placental 17beta-HSD1 at 1 uM
In this section, each of the molecules is paired with its reported inhibition.

SMILES STR | VALUE UNITS | inhibition
Oc1cccc(-c2cccc(-c3ccc(Cl)s3)n2)c1 | % | 40
Oc1cccc(-c2cc(-c3ccc(Cl)s3)ccn2)c1 | % | 61
Oc1cccc(-c2ccc(-c3ccoc3)cc2)c1 | % | 17
Oc1cccc(-c2cncc(-c3ccc(Cl)s3)c2)c1 | % | 40
Oc1cccc(-c2cccc(-c3cccs3)c2)c1 | % | 48
CC(=O)c1ccc(-c2ccc(-c3cccc(O)c3)cc2)s1 | % | 38
Oc1cccc(-c2cccc(-c3ccc(Cl)s3)c2)c1 | % | 71

---

TGT: 17-beta-hydroxysteroid dehydrogenase type 1 (Homo sapiens)
PROTOCOL TEXT: Displacement of [3H]estrone from human placental 17beta-HSD1 at 1 uM
READOUT NAME: inhibition (%)

SMILES STR | QUALIFYING SIGN | ENDPOINT VALUE
Oc1cccc(-c2ccccc2)c1 | < | 10
Oc1cccc(-c2ccc(N3CCOCC3)cc2)c1 | < | 10
Oc1cccc(-c2ccc(-c3cccs3)cc2)c1 | = | 36
Oc1cccc(-c2ccnc(-c3cccs3)c2)c1 | = | 33
CC(=O)c1ccc(-c2cccc(-c3cccc(O)c3)c2)s1 | = | 22
Oc1cccc(-c2ccnc(-c3ccc(Cl)s3)c2)c1 | = | 39
Oc1cccc(-c2ccc(-c3ccsc3)cc2)c1 | = | 41

Reference source: ChEMBL document CHEMBL1157771
